Reported values of pIC50 for individual entries
Tgt: Recombinant MAPKAPK2 (Homo sapiens, UniProt P49137)
Sequence (P49137 whole entry, species assumed): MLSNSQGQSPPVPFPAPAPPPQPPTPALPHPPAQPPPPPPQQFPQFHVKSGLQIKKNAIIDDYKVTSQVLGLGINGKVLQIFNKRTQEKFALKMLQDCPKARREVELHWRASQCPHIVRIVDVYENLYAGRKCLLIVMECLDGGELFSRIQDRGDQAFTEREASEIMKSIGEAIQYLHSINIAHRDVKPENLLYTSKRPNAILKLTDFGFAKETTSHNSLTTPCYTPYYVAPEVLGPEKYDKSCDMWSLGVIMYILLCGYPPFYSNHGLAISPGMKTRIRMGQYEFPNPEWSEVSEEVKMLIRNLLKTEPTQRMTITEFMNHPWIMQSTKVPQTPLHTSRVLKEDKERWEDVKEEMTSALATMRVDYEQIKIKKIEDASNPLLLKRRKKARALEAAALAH
Assay Name: Determination of MK-2 IC50 (HSP-peptide phosphorylation, anion exchange resin capture assay)
Assay type: biochemical
Particulars: MK-2 Avg. IC50, Table 2, tricyclic aminocyanopyridine MK-2 inhibitors
pIC50: −log10 of the molar value.

| Compound | pIC50 |
| --- | --- |
| N#Cc1c(N)nc2c(c1N)Cc1cc(OCCN)c(OCCN)cc1O2 | 5.59 |
| N#Cc1c(N)nc2c(c1N)Cc1cc(N)ccc1O2 | 6.29 |
| N#Cc1c(N)nc2c(c1N)Cc1cccc(OCCO)c1O2 | 3.81 |
| COc1ccc2c(c1O)Oc1nc(N)c(C#N)c(N)c1C2 | 6.17 |
| N#Cc1c(N)nc2c(c1N)Cc1cc(-c3ccccc3)ccc1O2 | 4.08 |
| COc1ccc2c(c1)Cc1c(nc(N)c(C#N)c1N)O2 [Example 53] | 4.71 |
| C=CCOc1ccc2c(c1)Oc1nc(N)c(C#N)c(N)c1C2 | 4.47 |
| CN(C)CCOc1ccc2c(c1)Oc1nc(N)c(C#N)c(N)c1C2 | 5.76 |
| COc1cc2c(cc1OC)Oc1nc(N)c(C#N)c(NCCN)c1C2 | 4.94 |
| CCCNc1c(C#N)c(N)nc2c1Cc1cc(OC)c(OC)cc1O2 | 4.81 |
